assay: Apparent permeability of a compound in human Caco-2 cells; type: ADME, cell-based
measurement.name: Papp (×10⁻⁶ cm/s)

Some entries whose results are on file:
CC1CC(C)Oc2ccnc3[nH]c(=O)n(c23)-c2cccc(n2)O1 (centres undefined): 32
CC1CCC(C)n2ccc(=O)c3ccc(nc32)-n2c(=O)[nH]c3nccc(c32)O1 (centres undefined): 4
CC1(C)NC(=O)c2ccc3nc2N1CCCCOc1ccnc2[nH]c(=O)n-3c12: 0.1
CC1CCCOc2ccnc3[nH]c(=O)n(c23)-c2ccc3c(=O)ccn1c3n2 (centres undefined): 3.1
CC1CCC(C)Oc2ccnc3[nH]c(=O)n(c23)-c2nc(c(C(N)=O)cc2F)O1 (centres undefined): 8
CC1CCN2c3nc(ccc3C(=O)NC2(C)C)-n2c(=O)[nH]c3nccc(c32)O1 (centres undefined): 0.9
CC1CCCn2ccc(=O)c3ccc(nc32)-n2c(=O)[nH]c3nccc(c32)O1 (centres undefined): 1.3
C[C@H](c1ccccc1)N1c2cc(-n3c(=O)[nH]c4ncccc43)ccc2C(=O)NC1(C)C: 7.4
CC1CCN(C)c2ccnc3ccc(nc23)-n2c(=O)[nH]c3nccc(c32)O1 (centres undefined): 14
CC1CCCOc2nc(ccc2C(N)=O)-n2c(=O)[nH]c3nccc(c32)O1 (centres undefined): 3.9

(a) CC1CCn2ccc(=O)c3cc(F)c(nc32)-n2c(=O)[nH]c3nccc(c32)O1 (centres undefined)
(b) O=c1ccn2c3nc(ccc13)-n1c(=O)[nH]c3nccc(c31)OCCCC2
Larger number for Papp: a , or b ? # answer = label of selected item
a

(1) NC(=O)c1ccc2nc1OCCCCOc1ccnc3[nH]c(=O)n-2c13
(2) CC1CCCOc2ccnc3[nH]c(=O)n(c23)-c2ccc3nccc1c3n2 (centres undefined)
Would you kindly point out which of 1 and 2 has the smaller Papp figure? # answer = label of selected item
1
(1: 0.2 ×10⁻⁶ cm/s, 2: 31 ×10⁻⁶ cm/s)

----------
test: Selectivity ratio of inhibition of CLK1 (unknown origin) to inhibition of PKC theta (unknown origin) at 1 mM ATP concentration
measurement.name: Selectivity ratio

(I) CC1CCN(C)c2c(F)cnc3cc(F)c(nc23)-n2c(=O)[nH]c3nccc(c32)O1 (stereo not given)
(II) CC1CCCOc2nc(ccc2C(N)=O)-n2c(=O)[nH]c3nccc(c32)O1 (stereo not given)
(III) CC1CCN2c3nc(ccc3C(=O)NC2(C)C)-n2c(=O)[nH]c3nccc(c32)O1 (stereo not given)
Reorder the list above by recorded Selectivity ratio in ascending order. Form entry: ranked labels (order as requested).
II, I, III

----------
Below are pIC50 values recorded for Voltage-gated inwardly rectifying potassium channel KCNH2 (Homo sapiens, UniProt Q12809).
When answering, recall that pIC50 equals minus log10 of the concentration in mol/L, and write that number alone.

CC1CCCOc2ccnc3[nH]c(=O)n(c23)-c2ccc3nccc1c3n2 (stereo not given): 4.62
CC1CCN(C)c2c(F)cnc3cc(F)c(nc23)-n2c(=O)[nH]c3nccc(c32)O1 (stereo not given): 4.89

Then this molecule:
Assay Voltage-gated inwardly rectifying potassium channel KCNH2 (Homo sapiens, UniProt Q12809), sample CC1CCN(C)c2ccnc3cc(F)c(nc23)-n2c(=O)[nH]c3nccc(c32)O1 (stereo not given) , pIC50 read: 5.62

----------
test: Selectivity ratio of inhibition of FLT3 (unknown origin) to inhibition of PKC theta (unknown origin) at 1 mM ATP concentration
measurement.name: Selectivity ratio

(P) CC1CC(C)Oc2ccnc3[nH]c(=O)n(c23)-c2cccc(n2)O1 (stereo not given)
(Q) CC1CCN2c3nc(ccc3C(=O)NC2(C)C)-n2c(=O)[nH]c3nccc(c32)O1 (stereo not given)
(R) CC1CCN(C)c2c(F)cnc3cc(F)c(nc23)-n2c(=O)[nH]c3nccc(c32)O1 (stereo not given)
(S) CC1CCC(C)n2ccc(=O)c3ccc(nc32)-n2c(=O)[nH]c3nccc(c32)O1 (stereo not given)
(T) CC1CCCOc2nc(ccc2C(N)=O)-n2c(=O)[nH]c3nccc(c32)O1 (stereo not given)
Reorder the list above by recorded Selectivity ratio in ascending order. Form entry: ranked labels (order as requested).
T, P, R, S, Q

Origin of values: ChEMBL document CHEMBL5625263
